Molecular target: T1, CUL2^ZYG11B (residues 490–728) (human, UniProt Q9C0D3 490-728)
T1 construct: human ZYG11B, substrate receptor of the cullin-2 RING E3 ligase; ARM3–ARM8 repeats, residues 490–728; also called CUL2^ZYG11B(490–728); ARM3–ARM8; source: E. coli, purified (Ni-NTA, TEV cleavage, HiTrap Q HP, gel filtration); not shown: His6, N-terminal, cleaved; SUMO, N-terminal, cleaved
T1 sequence (Q9C0D3 490-728): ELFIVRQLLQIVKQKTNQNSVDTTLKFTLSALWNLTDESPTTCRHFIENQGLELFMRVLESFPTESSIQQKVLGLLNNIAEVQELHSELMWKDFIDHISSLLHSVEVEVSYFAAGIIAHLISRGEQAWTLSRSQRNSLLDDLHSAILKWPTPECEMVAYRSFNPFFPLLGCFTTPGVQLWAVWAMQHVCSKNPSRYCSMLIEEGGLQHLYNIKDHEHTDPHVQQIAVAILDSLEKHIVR
Test: ITC; MicroCal iTC200; peptides (0.5–1 mmol/L) in the syringe, CUL2^ZYG11B(490–728) (0.03 mmol/L) in the cell; 18 injections of 2 μL; repeated 3 times
Conditions: both partners purified
Measurement name: pKd
Answers are plain numbers, as −log10 of the molar value.

Documented pKd of GYINV (first five residues of the SARS-CoV-2 ORF10 N-terminal extension; also called five-residue peptide; source: synthetic peptide) [SARS-CoV-2 ORF10 N5 peptide] : 5.53
